Biological target: T1, mouse DLL4 extracellular domain (mouse, UniProt Q9JI71 27-532)
T1 construct: extracellular domain; also called muDLL4 ECD; murine DLL4
T1 sequence (Q9JI71 27-532): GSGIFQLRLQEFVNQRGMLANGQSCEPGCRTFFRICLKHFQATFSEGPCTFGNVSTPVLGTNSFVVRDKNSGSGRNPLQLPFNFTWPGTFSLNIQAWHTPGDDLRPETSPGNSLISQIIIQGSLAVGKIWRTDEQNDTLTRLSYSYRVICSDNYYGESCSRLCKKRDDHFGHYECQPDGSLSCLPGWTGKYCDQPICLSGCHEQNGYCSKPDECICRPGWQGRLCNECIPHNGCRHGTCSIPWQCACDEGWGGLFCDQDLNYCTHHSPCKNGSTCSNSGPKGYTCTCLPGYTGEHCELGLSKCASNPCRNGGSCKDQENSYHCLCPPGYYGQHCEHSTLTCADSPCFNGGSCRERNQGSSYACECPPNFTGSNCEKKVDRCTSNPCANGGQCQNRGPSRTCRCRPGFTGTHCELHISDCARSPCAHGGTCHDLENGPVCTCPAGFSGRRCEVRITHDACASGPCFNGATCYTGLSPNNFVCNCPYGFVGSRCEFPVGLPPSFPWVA
Assay: binding ELISA
quantity: pEC50
Formally, pEC50 is defined as -log10 of the concentration c, with c in mol/L.

Recorded pEC50 of h1A11.3 (antibody, V domains shown, humanized IgG; also called VH.1/VL.1b 1A11) VH: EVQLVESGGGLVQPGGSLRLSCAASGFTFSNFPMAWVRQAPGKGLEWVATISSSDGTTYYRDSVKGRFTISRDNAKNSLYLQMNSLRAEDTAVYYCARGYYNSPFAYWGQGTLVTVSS VL: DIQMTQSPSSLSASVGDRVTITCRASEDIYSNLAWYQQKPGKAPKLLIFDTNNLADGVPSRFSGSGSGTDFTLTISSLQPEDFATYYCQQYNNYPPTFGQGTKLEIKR , please.
10.10
